Record set of pIC50 for target or system PAFR (Homo sapiens, UniProt P25105).
pIC50: −log10 of the molar value.
Property: pIC50

As a guide, the following entries are already answered.
# Molecule, Measured target, pIC50
measured = [
    ("CCc1cc(-c2ccc(OC3CCC3)nc2)ccc1S(=O)(=O)N[C@H]1CCC[C@@H](n2cnnc2)C1", "PAFR (Homo sapiens, UniProt P25105)", 9.10),
    ("O=S(=O)(N[C@H]1CCC[C@@H](n2cnnc2)C1)c1cc(-c2cccc(F)c2)cc(C(F)(F)F)c1", "PAFR (Homo sapiens, UniProt P25105)", 8.41),
]

A: CCCCOc1cc(F)c(S(=O)(=O)N[C@H]2CCC[C@@H](n3cnnc3C)C2)cc1F
B: Cc1nncn1[C@@H]1CCC[C@H](NS(=O)(=O)c2ccc(-c3noc(C4CCC4)n3)cc2OC(F)(F)F)C1
C: O=S(=O)(N[C@H]1CCC[C@@H](n2cnnc2)C1)c1cc(Cl)cc(Cl)c1
D: O=S(=O)(N[C@H]1CCC[C@@H](n2cnnc2)C1)c1ccc(-c2ccc(OC(F)(F)F)cc2)cc1OC(F)(F)F
Incoming: Exam item: list the entries in increasing order of pIC50. Enter labels, ranked according to the request.
Outgoing: C, D, A, B

P: O=S(=O)(N[C@H]1CCC[C@@H](n2cnnc2)C1)c1cc(-c2ccccc2F)cc(C(F)(F)F)c1
Q: Cc1nncn1[C@H]1C[C@@H](NS(=O)(=O)c2ccc(-c3ccc(OCC(F)(F)F)nc3)c(F)c2)CC(F)(F)C1
R: O=S(=O)(N[C@H]1CCC[C@@H](n2cnnc2)C1)c1ccc(-c2noc(C3CC3)n2)cc1
S: CCc1ccc(S(=O)(=O)N[C@H]2CCC[C@@H](n3cnnc3)C2)cc1-c1cccnc1OC
T: CCc1ccc(S(=O)(=O)N[C@H]2CCC[C@@H](n3cnnc3)C2)cc1-c1ccccc1
Incoming: List these items ordered by pIC50, big to small. Enter labels, ranked according to the request.
Outgoing: Q, P, T, S, R
(Q: 9.22, P: 8.27, T: 7.59, S: 7.20, R: 6.61)

1: CCCCOc1ccc(S(=O)(=O)N[C@H]2CCC[C@@H](n3cnnc3C3CC3)C2)c(F)c1
2: Cc1nncn1[C@@H]1CCC[C@H](NS(=O)(=O)c2ccc(-n3nccc3C3CC3)cc2)C1
3: CCc1cc(-c2cccc(OC)c2)ccc1S(=O)(=O)N[C@H]1CCC[C@@H](n2cnnc2)C1
Incoming: Exam item: list the entries in increasing order of pIC50. Enter labels, ranked according to the request.
Outgoing: 2, 3, 1
(2: 7.25, 3: 7.57, 1: 8.14)

* * *

Record set of IC50 for target or system UniProt P25105.
Property: IC50 (nM)

# Molecule, Readout unit, IC50
data = [
    ("O=S(=O)(N[C@H]1CCC[C@@H](n2cnnc2)C1)c1cc(-c2ccnc(F)c2)cc(C(F)(F)F)c1 [Compound 3Av]", "nM", 15),
    ("Cc1nncn1[C@@H]1CCC[C@H](NS(=O)(=O)c2ccc(OCCCC(F)(F)F)cc2)C1 [Compound 2Nac]", "nM", 4.7),
    ("Cc1nncn1[C@H]1C[C@@H](NS(=O)(=O)c2ccc(-c3ccc(OC(F)(F)F)cc3)c(F)c2)CC(F)(F)C1 [Compound 2Ha]", "nM", 1.4),
    ("CCc1cc(-c2cccc3cccnc23)cc(S(=O)(=O)N[C@H]2CCC[C@@H](n3cnnc3)C2)c1 [Compound 3Bd]", "nM", 0.9),
    ("CCc1cc(-c2cc(C(F)(F)F)cc(C(F)(F)F)c2)ccc1S(=O)(=O)N[C@H]1CCC[C@@H](n2cnnc2)C1 [Compound 2Abo]", "nM", 13),
]

a: Cc1cc(C)cc(S(=O)(=O)N[C@H]2CCC[C@@H](n3cnnc3)C2)c1 [Compound 2Me]
b: Cc1nncn1[C@@H]1CCC[C@H](NS(=O)(=O)c2ccc(-c3noc(C4CC4)n3)cc2F)C1 [Compound 2Ja]
c: O=S(=O)(N[C@H]1CCC[C@@H](n2cnnc2)C1)c1cc(OC(F)(F)F)cc(-c2ccccc2)c1 [Compound 3Ea]
d: CCc1cc(-c2noc(C3CC3)n2)ccc1S(=O)(=O)N[C@H]1CCC[C@@H](n2cnnc2C2CC2)C1 [Compound 2Ab]
e: CCc1cc(-c2noc(C3CC3)n2)ccc1S(=O)(=O)N[C@H]1CCC[C@@H](n2cnnc2C(F)(F)F)C1 [Compound 2Aa]
Incoming: Exam item: list the entries in increasing order of IC50. Enter labels, ranked according to the request.
Outgoing: d, e, c, b, a
